Molecular target: T1, human interleukin 13 receptor subunit alpha 2 (IL-13RA2) (human, UniProt Q14627 27-380)
T1 construct: whole, on cells; also called IL-13Rα2; CD213A2
T1 sequence (looked up): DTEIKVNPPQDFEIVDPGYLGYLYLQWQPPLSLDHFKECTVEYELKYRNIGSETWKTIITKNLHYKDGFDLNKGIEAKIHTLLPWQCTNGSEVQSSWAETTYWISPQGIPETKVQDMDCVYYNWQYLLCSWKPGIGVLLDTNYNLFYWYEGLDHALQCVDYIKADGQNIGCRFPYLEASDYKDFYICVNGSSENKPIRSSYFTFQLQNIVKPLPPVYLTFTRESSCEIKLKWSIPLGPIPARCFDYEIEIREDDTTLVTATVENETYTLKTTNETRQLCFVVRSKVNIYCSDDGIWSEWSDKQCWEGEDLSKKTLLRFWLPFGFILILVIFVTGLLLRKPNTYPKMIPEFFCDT
Assay: FACS on A375 cells
Description: A375 cells that endogenously expressed IL-13RA2, were harvested from flasks. 100 μl of 1×10⁶ cells/ml of cells were incubated with primary humanized antibodies in 4-fold serial dilutions starting from 200 nM to 0.003 nM for 30 minutes on ice. After being washed with 200 μl of FACS buffer twice, cells were incubated with secondary antibody for 30 minutes on ice. Cells were washed with 200 μl of FACS buffer twice and analyzed by FACS.
Entries annotated with measured Top (MFI)
Please respond with the number in MFI and leave the unit unwritten.

1. 61H8C1 H2L3 hIgG1 (antibody, V domains shown, humanized, hIgG1) VH: QVQLVQSGAEVAKPGASVKVSCKASGYTFTSYWTQWIRQAPGQGLEGMGAIYPGDDDTSYNQKFKGRVTMTADTSTSTVYMELSSLRSEDTAVYYCARGATLLRPFPYWGQGTLVTVSS VL: DIQMTQSPSSLSTSVGDRVTITCKASQDVSTAVAWYQQKPGKSPKLLIYSASYRYTGVPDRFSGSGSGTDFTFTISSLQPEDFATYSCQQHYSIPPTFGGGTKLEIK | 22100
2. 57F8H3F1 H2L1 hIgG1 (antibody, V domains shown, humanized, hIgG1) VH: QVQLVQSGAEVVKPGASVKVSCKASGYTFTNYWMNWVRQAPGQGLEWIGRIDAYETETHYNQKFRDRVTMTVDTSTSTVYMELSSLRSEDTAVYYCARGYGHYYGVDYWGQGTLVTVSS VL: DIQMTQSPSSLSASVGDRVTITCRASENVGNFGISFVNWYQQKPGKAPKLLIYAASNLGSGVPSRFSGSGSGTDFTLTISSLQPEDFATYYCQQSKGVPWTFGQGTKVEIK | 6910
3. 61H8C1 H1L3 hIgG1 (antibody, V domains shown, humanized, hIgG1) VH: QVQLVQSGAEVKKPGASVKVSCKASGYTFTSYWTQWVRQAPGQGLEWMGAIYPGDDDTSYNQKFKGRVTMTRDTSTSTVYMELSSLRSEDTAVYYCARGATLLRPFPYWGQGTLVTVSS VL: DIQMTQSPSSLSTSVGDRVTITCKASQDVSTAVAWYQQKPGKSPKLLIYSASYRYTGVPDRFSGSGSGTDFTFTISSLQPEDFATYSCQQHYSIPPTFGGGTKLEIK | 20000
4. 57F8H3F1 H1L2 hIgG1 (antibody, V domains shown, humanized, hIgG1) VH: QVQLVQSGAEVKKPGASVKVSCKASGYTFTNYWMNWVRQAPGQGLEWMGRIDAYETETHYNQKFRDRVTMTRDTSTSTVYMELSSLRSEDTAVYYCARGYGHYYGVDYWGQGTLVTVSS VL: DIQMTQSPSSLSASVGDRVTITCRASENVGNFGISFVNWFQQKPGKAPKLLIYAASNLGSGDPSRFSGSGSGTDFTLTISSLQPEDFATYFCQQSKGVPWTFGQGTKVEIK | 7510

Give me measured Top (MFI), please, for this binder: 57F8H3F1 H4L2 hIgG1 (antibody, V domains shown, humanized, hIgG1) VH: QVQLVQSGAEVVKPGASVKLSCKASGYTFTNYWMNWVKQRPGQGLEWIGRIDAYETETHYNQKFRDRAILTVDKSTSTAYMELRSLRSEDTAVYYCARGYGHYYGVDYWGQGTLVTVSS VL: DIQMTQSPSSLSASVGDRVTITCRASENVGNFGISFVNWFQQKPGKAPKLLIYAASNLGSGDPSRFSGSGSGTDFTLTISSLQPEDFATYFCQQSKGVPWTFGQGTKVEIK 7340
